List of clearance values.
# ASSAY_NAME: Clearance in Sprague-Dawley rat at 5 mg/kg, iv
# Assay type: ADME, organism-based
# Parameters: dose 5 mg/kg, route intravenous
# CONDITION_SET: in vivo
RECORDED_ENDPOINT: clearance (L/h/kg)

>  <MOL_SMILES>
Cn1c(COc2ccc(F)cc2)c2c(=O)n(-c3ccccc3Cl)[nH]c2cc1=O

>  <ASSAY_RESULT>
0.77

$$$$
>  <MOL_SMILES>
COCCn1c(COc2ccc(F)cc2)c2c(=O)n(CCN3CCOCC3)[nH]c2cc1=O

>  <ASSAY_RESULT>
6.52

$$$$
>  <MOL_SMILES>
O=c1c2c(COCc3ccccc3)n(Cc3cnccn3)c(=O)cc2[nH]n1-c1ccccc1Cl

>  <ASSAY_RESULT>
0.33

$$$$
>  <MOL_SMILES>
O=c1c2c(CN3CCCC3)n(CCc3ccccn3)c(=O)cc2[nH]n1-c1ccc(F)cc1Cl

>  <ASSAY_RESULT>
1.61

$$$$
>  <MOL_SMILES>
Cc1c2c(=O)n(-c3ccccc3Cl)[nH]c2cc(=O)n1Cc1ccccn1

>  <ASSAY_RESULT>
0.47

$$$$

====

# STUDY_SYSTEM: NADPH oxidase 1 (Homo sapiens)
# Sequence (Q9Y5S8 whole entry): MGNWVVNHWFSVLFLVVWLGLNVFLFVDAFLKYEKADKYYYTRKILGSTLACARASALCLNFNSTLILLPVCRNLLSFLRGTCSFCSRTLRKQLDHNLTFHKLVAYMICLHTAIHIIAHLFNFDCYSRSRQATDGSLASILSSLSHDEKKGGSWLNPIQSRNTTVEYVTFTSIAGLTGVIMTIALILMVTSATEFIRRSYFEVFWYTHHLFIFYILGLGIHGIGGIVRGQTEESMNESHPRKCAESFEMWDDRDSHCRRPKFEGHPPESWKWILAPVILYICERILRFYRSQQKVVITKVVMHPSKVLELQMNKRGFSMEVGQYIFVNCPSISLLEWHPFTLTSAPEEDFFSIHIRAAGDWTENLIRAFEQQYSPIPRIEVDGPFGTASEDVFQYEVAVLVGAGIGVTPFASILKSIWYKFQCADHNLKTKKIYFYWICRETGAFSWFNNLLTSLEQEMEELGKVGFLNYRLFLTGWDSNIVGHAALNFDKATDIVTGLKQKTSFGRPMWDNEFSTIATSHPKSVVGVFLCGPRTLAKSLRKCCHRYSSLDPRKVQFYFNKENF
# ASSAY_NAME: Inhibition of human NOX1 overexpressed in […] cell membrane assessed as ROS production by cell free assay in presence of NADPH
# CONDITION_SET: in the assay text read “T-REx-CHO cell membrane” for “human PMN cell membrane”
RECORDED_ENDPOINT: Ki (µM)

>  <MOL_SMILES>
Cc1c2c(=O)n(-c3ccccc3Cl)[nH]c2cc(=O)n1Cc1ccccn1

>  <RECORDED_ENDPOINT>
Ki

>  <UNIT_INFO>
µM

>  <ASSAY_RESULT>
0.16

$$$$

====

List of half-life values.
# ASSAY_NAME: Half life in Sprague-Dawley rat at 10 mg/kg, po
# Assay type: ADME, organism-based
# Parameters: dose 10 mg/kg, route oral
# CONDITION_SET: in vivo

>  <MOL_SMILES>
O=c1c2c(COCc3ccccc3)n(Cc3cnccn3)c(=O)cc2[nH]n1-c1ccccc1Cl

>  <half-life>
2.38 h

$$$$
>  <MOL_SMILES>
Cn1c(COc2ccc(F)cc2)c2c(=O)n(-c3ccccc3Cl)[nH]c2cc1=O

>  <half-life>
3.03 h

$$$$
>  <MOL_SMILES>
Cc1c2c(=O)n(-c3ccccc3)[nH]c2cc(=O)n1Cc1cccnc1

>  <half-life>
1.2 h

$$$$
>  <MOL_SMILES>
COCCn1c(COc2ccc(F)cc2)c2c(=O)n(CCN3CCOCC3)[nH]c2cc1=O

>  <half-life>
2.35 h

$$$$
>  <MOL_SMILES>
O=c1c2c(CN3CCCC3)n(CCc3ccccn3)c(=O)cc2[nH]n1-c1ccc(F)cc1Cl

>  <half-life>
1.13 h

$$$$

====

# ASSAY_NAME: Intrinsic clearance in Sprague-Dawley rat liver microsomes assessed per mg of protein at 0.5 uM
# Format: ADME, Microsome
Quick rule: microsomal CLint at 0.5 µM of at least 80 µL/min/mg means yes, below that means no.

>  <MOL_SMILES>
Cc1c2c(=O)n(-c3ccccc3)[nH]c2cc(=O)n1Cc1cccnc1

>  <LABEL_CLASS>
yes

$$$$
>  <MOL_SMILES>
COCCn1c(COc2ccc(F)cc2)c2c(=O)n(CCN3CCOCC3)[nH]c2cc1=O

>  <LABEL_CLASS>
no

$$$$
>  <MOL_SMILES>
Cn1c(COc2ccc(F)cc2)c2c(=O)n(-c3ccccc3Cl)[nH]c2cc1=O

>  <LABEL_CLASS>
yes

$$$$
>  <MOL_SMILES>
Cn1c(COCc2ccccc2Cl)c2c(=O)n(-c3ccccc3Cl)[nH]c2cc1=O

>  <LABEL_CLASS>
yes

$$$$
>  <MOL_SMILES>
Cc1c2c(=O)n(-c3ccc(F)cc3Cl)[nH]c2cc(=O)n1Cc1ccccn1

>  <LABEL_CLASS>
yes

$$$$
>  <MOL_SMILES>
Cc1c2c(=O)n(-c3ccccc3Cl)[nH]c2cc(=O)n1Cc1cccc(N2CCOCC2)n1

>  <LABEL_CLASS>
no

$$$$
>  <MOL_SMILES>
Cc1c2c(=O)n(-c3cccc(Cl)c3)[nH]c2cc(=O)n1C

>  <LABEL_CLASS>
yes

$$$$
>  <MOL_SMILES>
Cc1c2c(=O)n(-c3ccccc3Cl)[nH]c2cc(=O)n1C

>  <LABEL_CLASS>
no

$$$$
>  <MOL_SMILES>
Cc1c2c(=O)n(-c3ccccc3Cl)[nH]c2cc(=O)n1Cc1ccccn1

>  <LABEL_CLASS>
no

$$$$

====

# ASSAY_NAME: AUC (infinity) in Sprague-Dawley rat at 5 mg/kg, sc
# Format: ADME, organism-based
# Parameters: time infinity, dose 5 mg/kg, route subcutaneous
# CONDITION_SET: plasma
RECORDED_ENDPOINT: AUC(0-inf) (ng·h/mL)

>  <MOL_SMILES>
Cc1c2c(=O)n(-c3ccccc3)[nH]c2cc(=O)n1Cc1cccnc1

>  <RECORDED_ENDPOINT>
AUC(0-inf)

>  <UNIT_INFO>
ng·h/mL

>  <ASSAY_RESULT>
815

$$$$

====

# System: Rattus norvegicus
# ASSAY_NAME: Hepatic blood flow in Sprague-Dawley rat at 5 mg/kg, iv
# Format: ADME, organism-based, Liver
# Design: dose 5 mg/kg, route intravenous
# CONDITION_SET: in vivo

>  <MOL_SMILES>
Cc1c2c(=O)n(-c3ccccc3)[nH]c2cc(=O)n1Cc1cccnc1

>  <UNIT_INFO>
mL/min/kg

>  <QH>
55

$$$$

====

List of microsomal CLint at 0.5 µM values.
# ASSAY_NAME: Intrinsic clearance in human liver microsomes assessed as per mg of protein at 0.5 uM
# Format: ADME, Microsome

>  <MOL_SMILES>
Cn1c(COCc2ccccc2Cl)c2c(=O)n(-c3ccccc3Cl)[nH]c2cc1=O

>  <microsomal CLint at 0.5 µM>
212 µL/min/mg

$$$$
>  <MOL_SMILES>
Cc1c2c(=O)n(-c3ccc(F)cc3Cl)[nH]c2cc(=O)n1Cc1ccccn1

>  <microsomal CLint at 0.5 µM>
37.6 µL/min/mg

$$$$
>  <MOL_SMILES>
CN(Cc1c2c(=O)n(-c3ccccc3Cl)[nH]c2cc(=O)n1Cc1ccncc1)c1ccccc1

>  <microsomal CLint at 0.5 µM>
76.3 µL/min/mg

$$$$
>  <MOL_SMILES>
O=c1c2c(COCc3ccccc3)n(Cc3cnccn3)c(=O)cc2[nH]n1-c1ccccc1Cl

>  <microsomal CLint at 0.5 µM>
32.4 µL/min/mg

$$$$
>  <MOL_SMILES>
COCCCn1c(CN(C)Cc2ccccc2)c2c(=O)n(-c3ccc(F)cc3Cl)[nH]c2cc1=O

>  <microsomal CLint at 0.5 µM>
96.4 µL/min/mg

$$$$

====

# STUDY_SYSTEM: Cytochrome P450 1A2 (Homo sapiens)
# Sequence (P05177 whole entry): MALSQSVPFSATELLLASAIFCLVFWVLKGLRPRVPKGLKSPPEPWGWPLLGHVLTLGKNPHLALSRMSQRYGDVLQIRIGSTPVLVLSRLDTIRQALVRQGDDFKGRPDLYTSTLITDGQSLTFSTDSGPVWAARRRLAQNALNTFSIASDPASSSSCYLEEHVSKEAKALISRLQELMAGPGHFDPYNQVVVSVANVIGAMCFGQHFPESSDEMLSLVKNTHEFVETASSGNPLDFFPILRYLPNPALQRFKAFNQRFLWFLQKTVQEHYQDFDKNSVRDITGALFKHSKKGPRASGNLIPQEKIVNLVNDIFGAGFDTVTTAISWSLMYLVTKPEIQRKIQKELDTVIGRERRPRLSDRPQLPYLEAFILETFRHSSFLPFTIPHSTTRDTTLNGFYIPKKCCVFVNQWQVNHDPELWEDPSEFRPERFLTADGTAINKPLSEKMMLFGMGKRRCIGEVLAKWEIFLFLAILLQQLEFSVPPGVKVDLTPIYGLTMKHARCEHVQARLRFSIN
pIC50: −log10 of the molar value.
RECORDED_ENDPOINT: pIC50

>  <MOL_SMILES>
Cc1c2c(=O)n(-c3ccccc3Cl)[nH]c2cc(=O)n1Cc1ccccn1

>  <RECORDED_ENDPOINT>
pIC50

>  <ASSAY_RESULT>
< 4.60

$$$$

====

# ASSAY_NAME: AUC (infinity) in Sprague-Dawley rat at 10 mg/kg, po
# Type: ADME, organism-based
# Design: time infinity, dose 10 mg/kg, route oral
# CONDITION_SET: plasma
Quick rule: AUC(0-inf) of at least 2000 ng·h/mL means Condition met, below that means Condition not met.

>  <MOL_SMILES>
Cn1c(COc2ccc(F)cc2)c2c(=O)n(-c3ccccc3Cl)[nH]c2cc1=O

>  <LABEL_CLASS>
Condition met

$$$$
>  <MOL_SMILES>
Cc1c2c(=O)n(-c3ccccc3)[nH]c2cc(=O)n1Cc1cccnc1

>  <LABEL_CLASS>
Condition not met

$$$$
>  <MOL_SMILES>
Cc1c2c(=O)n(-c3ccccc3Cl)[nH]c2cc(=O)n1Cc1ccccn1

>  <LABEL_CLASS>
Condition met

$$$$
>  <MOL_SMILES>
O=c1c2c(CN3CCCC3)n(CCc3ccccn3)c(=O)cc2[nH]n1-c1ccc(F)cc1Cl

>  <LABEL_CLASS>
Condition met

$$$$
>  <MOL_SMILES>
O=c1c2c(COCc3ccccc3)n(Cc3cnccn3)c(=O)cc2[nH]n1-c1ccccc1Cl

>  <LABEL_CLASS>
Condition met

$$$$
>  <MOL_SMILES>
COCCn1c(COc2ccc(F)cc2)c2c(=O)n(CCN3CCOCC3)[nH]c2cc1=O

>  <LABEL_CLASS>
Condition not met

$$$$
